Taken from patent US10760052B2.

# Target under test: mu opiate receptor (MOR) (Rattus norvegicus)
# Construct: from tissue; host or cells: striatum (membrane preparation)
# Sequence (P33535 whole entry): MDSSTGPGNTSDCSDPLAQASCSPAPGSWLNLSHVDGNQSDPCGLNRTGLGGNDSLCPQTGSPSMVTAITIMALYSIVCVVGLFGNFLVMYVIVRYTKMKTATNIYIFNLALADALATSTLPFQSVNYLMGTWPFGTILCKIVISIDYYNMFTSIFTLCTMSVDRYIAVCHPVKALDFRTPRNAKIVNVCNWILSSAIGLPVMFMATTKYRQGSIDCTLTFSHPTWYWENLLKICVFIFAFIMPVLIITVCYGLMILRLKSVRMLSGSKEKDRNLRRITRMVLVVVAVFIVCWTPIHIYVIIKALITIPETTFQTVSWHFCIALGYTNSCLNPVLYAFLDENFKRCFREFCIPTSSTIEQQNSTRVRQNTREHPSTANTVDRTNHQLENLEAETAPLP
# Type: biochemical
# Assay conditions: 0.1 μM compound; striatal membranes; Series C-2
Parameter [35S]GTPγS binding, FLNA-Binding Compound as Agonist at 0.1 μM: see the listing below.
Express it in %; write the number only.

COc1ccc(S(=O)(=O)N2CCC3(CC2)NCCO3)cc1    207.2
CN1CCC2(CC1)NCC(=O)N2Cc1ccccc1 [Compound C0105M]    198.1
C=CCN1CCC2(CC1)OCCN2S(=O)(=O)c1ccc(C(C)=O)cc1 [Compound C0096M]    186.4
COc1ccc(S(=O)(=O)N2CCC3(NCCO3)C3CCCCC32)cc1 (stereo not drawn) [Compound C0144M-2]    186.3
COc1ccc(S(=O)(=O)N2CCOC23CCN(C(C)C)CC3)cc1 [Compound C0133M]    139.4
CN1CCC2(CC1)NC(=O)CN2Cc1ccccc1 [Compound C0104M]    188.2

Hello, please tell me recorded [35S]GTPγS binding, FLNA-Binding Compound as Agonist at 0.1 μM for this one: CCCCN1CCC2(CC1)OCCN2S(=O)(=O)c1ccc(OC)cc1 [Compound C0102M] 131.8

Give the reported [35S]GTPγS binding, FLNA-Binding Compound as Agonist at 0.1 μM for this compound. O=C1CN(Cc2ccccc2)C2(CCN(C3CCCCC3)CC2)N1 [C0137M (P7)] 180.8

Supply [35S]GTPγS binding, FLNA-Binding Compound as Agonist at 0.1 μM value. Item: O=[N+]([O-])c1ccc(S(=O)(=O)N2CCC3(CC2)NCCS3)cc1 173.7
